Assignment: determine reported protein stability index for the given variants.
B1: ZNF649 (parent)
chain: MTKAQESLTLEDVAVDFTWEEWQF

Variants of: B1
Experiment: protein stability index of a GFP-peptide fusion (GPS, HEK-293T) (PSI 1-6); higher = more stable;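 also: lentivirally expressed fusions sorted by FACS into six bins by GFP to DsRed ratio, PSI derived from sequencing read proportions per bin multiplied by bin number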
Conditions: c terminus: a fixed tail appended

MTKAQESLTLENVAVDFTWEEWQF [D12N] ... 2.23
MTKAQESLTLEDVAVDFTWEEYQF [W22Y] ... 3.44
HTKAQESLTLEDVAVDFTWEEWQF [M1H] ... 3.72
MTKAQESRTLEDVAVDFTWEEWQF [L8R] ... 3.79
MTKAQESLTLEDVAVLFTWEEWQF [D16L] ... 2.73

# batch: return protein stability index for each of the 8 variants below
1. MTKAQESLTLEDSAVDFTWEEWQF [V13S]
2. MTKAQESLTLEEVAVDFTWEEWQF [D12E]
3. MTKAQESLTLEDVAVDFTWEEWIF [Q23I]
4. MTKAQESLTLEDVAVDFRWEEWQF [T18R]
5. MTKAQESLTLEDVAVDFPWEEWQF [T18P]
6. MTKAQESLTLEDVAVDFTWEFWQF [E21F]
7. MTKAQESETLEDVAVDFTWEEWQF [L8E]
8. MTKAQQSLTLEDVAVDFTWEEWQF [E6Q]

1: 4.69; 2: 3.23; 3: 1.97; 4: 2.17; 5: 3.16; 6: 3.42; 7: 4.39; 8: 2.94

# batch: return protein stability index for each of the 5 variants below
1. MTKAQESLTLEDLAVDFTWEEWQF [V13L]
2. MTKAQTSLTLEDVAVDFTWEEWQF [E6T]
3. MTKAQSSLTLEDVAVDFTWEEWQF [E6S]
4. MTKAQESLTLRDVAVDFTWEEWQF [E11R]
5. MTKAQESLTLEHVAVDFTWEEWQF [D12H]

3.23
2.71
2.33
2.39
2.68

# batch: return protein stability index for each of the 4 variants below
1. MTKAQESLTLADVAVDFTWEEWQF [E11A]
2. MTKAQESLTLFDVAVDFTWEEWQF [E11F]
3. MTKAQESLTLEDVAVDFTWDEWQF [E20D]
4. MTKAQESLTNEDVAVDFTWEEWQF [L10N]

2.39
1.44
3.14
4.29
